Please go through the items and note down their phosphorylation enrichment.
System: c-Abl (mouse);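 further: 11-residue human phosphosite peptides and single-mutation variants displayed on the E. coli surface, counted by deep sequencing, each peptide's frequency after selection divided by its frequency in the unselected input library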;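 further: frequency after pTyr selection over input frequency; kinase dosed for 20-30% of maximal phosphorylation in three min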
Assay: phosphorylation enrichment, bacterial display (enrichment ratio); higher = better substrate or ligand; peptides without Tyr show the background
Answers are plain numbers.

Below: 3 sequences and their reported phosphorylation enrichment.
ordered_residues="GGCQEYTGAPY [NAXD_Y85]" value_type="phosphorylation enrichment" test_value=0.699
ordered_residues="KLIMEYLPFGS [JAK2_Y931_YF]" value_type="phosphorylation enrichment" test_value=0.734
ordered_residues="VKFLGYPPPEI [KDR_Y357_A352V_YF]" value_type="phosphorylation enrichment" test_value=0.688

Please give phosphorylation enrichment for each item listed below.
1. KSVSQYLEMDK [CAGE1_Y438]
2. DGYTDYAEFAK [MCFD2_Y138_I136T]
3. STLEVYRCHPP [IL21R_Y317_S318R]
4. GVVVPYEPPEV [TP53_Y220_S215G]
5. MPPHIYAITDT [MYH9_Y151]
6. FADIAYNYRHR [PAH_Y166_G171R]
7. LSGFGYRLSDQ [PDCD6_Y124]
8. MSDVPYVMNRG [ACAT1_Y161_N158D]

OUT:
1. 1.05
2. 0.734
3. 0.78
4. 0.695
5. 0.922
6. 0.511
7. 0.787
8. 0.549

Need phosphorylation enrichment for each of these sequences.
1. PAIYTYDEYKK [COL8A2_Y648_T645I]
2. FIPSNYVAEDR [FRK_Y104_YF]

OUT:
1.04
0.431

The recorded phosphorylation enrichment for entry LSIDRYHAIVF [NPSR1_Y147_YF] equals 0.941
